Target: EGFR on EGFR-overexpressing tumor cell line A431 (Homo sapiens, A431 cells, UniProt P00533)
Assay: cell-based or functional assay
test readout: ADCC EC50 killing: NK cell-mediated lysis of EGFR-overexpressing A431 cells, E:T 5:1 (nM)

- binder: "60C08 IgG (antibody, synthetic bovine IGHV1-7 (VHBUL) scaffold, FR1 to FR3; ultralong CDR-H3 (stalk and knob) of clone 60C08 from immunised cattle; FR4 of the synthetic VH domain; human IgG1 heavy chain constant regions; as the light chain of m3: bovine VL (V30, VLλ30) deduced from PDB entries that share a CDR-identical light chain; human constant lambda region (CLλ); chimeric IgG1; also called chimeric bovine × …) VH: QVQLRESGPSLVKPSQTLSLTCTASGFSLSDKAVGWVRQAPGKALEWLGGIDTGGSTGYNPGLKSRLSITKDNSKSQVSLSVSSVTTEDSATYYCTTVHQKTIETTQKTCPDGYFYADTCWAYSCRCRDCDCCRSSGGCTYSRDSHTATYEWHVDAWGQGLLVTVSS VL: EAVLNQPSSVSGSLGQRVSITCSGSSSNVGNGYVSWYQLIPGSAPRTLIYGDTSRASGVPDRFSGSRSGNTATLTISSLQAEDEADYFCASAEDSSSNAVFGSGTTLTVL"
  numeric value: 0.0587
